Assay: Drug concentration in total heart in Wistar Han rat at 1 to 2 mg/kg, iv infused for 10 to 20 hrs by LC-MS/MS analysis
Settings: in vivo
Consider the cut-off 100 ng/mL. If the recorded Ct is strictly smaller, the label is 1.0; if not, the label is 0.0.

compound: COc1ccc(-c2cc3c(C(=O)O)n[nH]c3cc2Cl)cc1
label: 1.0
//
compound: CCCC(Oc1ccc(-n2cc3ccccc3n2)cc1)c1ccc(C(=O)NCCC(=O)O)cc1 (centres undefined)
label: 1.0
//
compound: COc1cc2c(cc1Cc1ccccc1)C[C@H](N)C(=O)N2OC(=O)N(C)C
label: 1.0
//
compound: NC(=O)c1c(-c2ccc(Oc3ccc(Cl)cc3)cc2)nn([C@@H]2CCCN(C(=O)/C=C/CO)C2)c1N
label: 0.0
//
compound: CS(=O)(=O)c1cccc(C(=O)O)c1
label: 1.0
//
compound: Cn1ncc(-c2ccc(C(=O)N(c3ncccc3Cl)[C@@H]3CCCNC3)cc2)c1C(=O)O
label: 0.0
//
compound: COc1ccc2ncc(F)c([C@@H](O)CC[C@@H]3CCN(CCSc4cccs4)C[C@@H]3C(=O)O)c2c1
label: 1.0
//
compound: CN(C)C(=O)C(CCN1CCC(O)(c2ccc(Cl)cc2)CC1)(c1ccccc1)c1ccccc1 [LOPERAMIDE]
label: 0.0
//
compound: C[C@H](CN1CCOCC1)n1/c(=N\C(N)=O)[nH]c2cc(/C=C3\c4ccccc4COc4cc(F)ccc43)ccc21
label: 0.0
//
compound: Cc1c(C(=O)O)cnn1-c1nc(-c2cccc(C(F)(F)F)c2)cs1
label: 0.0
//
compound: O=C(O)c1nc2cc(Cl)c(Cl)cc2nc1O
label: 1.0
//
compound: CCC[C@H](Oc1cc(C)c(-n2cc(C(F)(F)F)cn2)c(C)c1)c1ccc(C(=O)NCCC(=O)O)cc1
label: 0.0
//
compound: N#Cc1ccc(N2N=C(N3CCC(C(=O)N4CCC(O)CC4)CC3)C[C@H]2C2CCCC2)cc1Cl
label: 0.0
//
compound: O=c1[nH]c(=S)n(CCO)c2cc[nH]c12
label: 1.0
//
compound: CCCn1cnc(C[C@H](CCCN)C(=O)O)c1
label: 0.0
//
compound: CN(C)C(=O)c1cc(CC(=O)O)ccc1NC(=O)c1ccccc1-c1ccc(C(F)(F)F)cc1
label: 1.0

###

Assay: Drug concentration in total liver in Wistar Han rat at 1 to 2 mg/kg, iv infused for 10 to 20 hrs by LC-MS/MS analysis
Settings: in vivo
Below is a list of entries, each paired with its recorded Ct value.

structure_as_smiles: CC(C)C[C@H](Nc1ccc(C(=O)NCCC(=O)O)cn1)c1ccc(-c2ccc(C(F)(F)F)cn2)cc1
Ct: 1000 ng/mL

structure_as_smiles: NC(=O)c1c(-c2ccc(Oc3ccc(Cl)cc3)cc2)nn([C@@H]2CCCN(C(=O)/C=C/CO)C2)c1N
Ct: 470 ng/mL

structure_as_smiles: O=c1[nH]c(=S)n(CCO)c2cc[nH]c12
Ct: 70 ng/mL

structure_as_smiles: C[C@H]1c2cccc(CCC(C)(C)O)c2C[C@H](CO)N1C(=O)Cc1c(Cl)cccc1Cl
Ct: 690 ng/mL

structure_as_smiles: CC1(OC(=O)N2CCC(n3ncc(COc4ccc(C(N)=O)cc4F)c3C#N)CC2)CC1
Ct: 520 ng/mL

###

Assay: Drug concentration in total liver in Wistar Han rat at 1 to 2 mg/kg, iv infused for 10 to 20 hrs by LC-MS/MS analysis
Conditions: in vivo
Below is a list of entries, each paired with its recorded log10(Ct) value.
measure: log10(Ct) (log10 of the value in ng/mL)

compound: C[C@H]1C[C@H]2CSC(N)=N[C@@]2(c2cc(C#N)ccc2F)CO1
data_value: 3.00
//
compound: CO[C@@H]1C[C@H](C(=O)Nc2ccc(-n3cc(Cl)ccc3=O)cc2F)N(C(=O)Nc2ccc(Cl)cc2)C1
data_value: 2.78
//
compound: Cc1nc([C@@H]2CCOC2)c2c(N3CCc4c(c(C5CC5)nn4C)C3)ncnn12
data_value: 2.58
//
compound: C[C@H](CN1CCOCC1)n1/c(=N\C(N)=O)[nH]c2cc(/C=C3\c4ccccc4COc4cc(F)ccc43)ccc21 [LY2623091]
data_value: 2.86
//
compound: N#Cc1ccc(N2N=C(N3CCC(C(=O)N4CCC(O)CC4)CC3)C[C@H]2C2CCCC2)cc1Cl
data_value: 3.00
//
compound: CN(C)C[C@@H](OC(=O)N1Cc2c(NC(=O)C3(C(F)(F)F)CC3)n[nH]c2C1(C)C)c1ccccc1
data_value: 2.62
//
compound: O=C(c1cccc(N2CCNCC2)n1)N1CCC(c2ccccc2F)CC1
data_value: 2.98
//
compound: CN1CC[C@H](c2c(O)cc(O)c3c(=O)cc(-c4ccccc4Cl)oc23)[C@H](O)C1 [ALVOCIDIB]
data_value: 1.51

###

Assay: Fraction unbound in Wistar Han rat heart at 2 uM incubated for 6 hrs by equilibrium dialysis method
Below is a list of entries, each paired with its recorded fraction unbound at 6 h, 2 µM value.

structure_as_smiles: CC(C)(O)CS(=O)(=O)c1ccc2c(c1)nc(C(C)(C)C)n2CC1CCOCC1
fraction unbound at 6 h, 2 µM: 0.321
//
structure_as_smiles: Cn1nc(C(=O)NCCN2CCOCC2)cc1-c1cc2ccccc2[nH]1
fraction unbound at 6 h, 2 µM: 0.0422
//
structure_as_smiles: C[C@H]1C[C@H]2CSC(N)=N[C@@]2(c2cc(C#N)ccc2F)CO1
fraction unbound at 6 h, 2 µM: 0.668
//
structure_as_smiles: O=C(O)c1c[nH]c2cc(Cl)c(-c3ccc(CC(=O)N4CCOCC4)cc3)cc12
fraction unbound at 6 h, 2 µM: 0.0746
//
structure_as_smiles: NC(=O)c1c(-c2ccc(Oc3ccc(Cl)cc3)cc2)nn([C@@H]2CCCN(C(=O)/C=C/CO)C2)c1N
fraction unbound at 6 h, 2 µM: 0.013

###

Test: Drug concentration in total skeletal muscle in Wistar Han rat at 1 to 2 mg/kg, iv infused for 10 to 20 hrs by LC-MS/MS analysis
Conditions: in vivo

compound: C[C@H]1c2cccc(CCC(C)(C)O)c2C[C@H](CO)N1C(=O)Cc1c(Cl)cccc1Cl
endpoint_unit: ng/mL
Ct: 95
//
compound: CC(C)n1ncc2c1C(=O)CC1(CCN(C(=O)c3ccc4[nH]nc(C(N)=O)c4c3)CC1)C2
endpoint_unit: ng/mL
Ct: 30
//
compound: COc1ccc(-c2cc3c(S(=O)(=O)O)c[nH]c3cc2Cl)cc1
endpoint_unit: ng/mL
Ct: 16
//
compound: O=C(NC(c1ccccc1)c1ccccc1)C1CC1
endpoint_unit: ng/mL
Ct: 40
//
compound: C[C@H]1C[C@H]2CSC(N)=N[C@@]2(c2cc(C#N)ccc2F)CO1
endpoint_unit: ng/mL
Ct: 240
//
compound: O=C(O)C(=O)Nc1ccc(NC(=O)[C@H](CC2CCCC2)n2cnc(C(F)(F)F)c2)nc1
endpoint_unit: ng/mL
Ct: 0.9
//
compound: O=C(c1cccc(N2CCNCC2)n1)N1CCC(c2ccccc2F)CC1
endpoint_unit: ng/mL
Ct: 170
//
compound: CN(C)C(=O)C(CCN1CCC(O)(c2ccc(Cl)cc2)CC1)(c1ccccc1)c1ccccc1 [LOPERAMIDE]
endpoint_unit: ng/mL
Ct: 170
//
compound: COc1cc2c(cc1Cc1ccccc1)C[C@H](N)C(=O)N2OC(=O)N(C)C
endpoint_unit: ng/mL
Ct: 32
//
compound: CC(C)C[C@H](Nc1ccc(C(=O)NCCC(=O)O)cn1)c1ccc(-c2ccc(C(F)(F)F)cn2)cc1
endpoint_unit: ng/mL
Ct: 0.8

###

Assay: Unbound tissue partition coefficient, ratio of drug level in liver to plasma in Wistar Han rat at 1 to 2 mg/kg, iv infused for 10 to 20 hrs by LC-MS/MS analysis
Conditions: liver/plasma
Consider the cut-off 4. If the recorded Kp uu is strictly smaller, the label is YES; if not, the label is NO.

compound: Cc1nc2cc(-c3cc(F)cc(C#N)c3)ccc2s1
label: NO

compound: COc1ccc2ncc(F)c([C@@H](O)CC[C@@H]3CCN(CCSc4cccs4)C[C@@H]3C(=O)O)c2c1
label: NO

compound: CC(C)(O)CS(=O)(=O)c1ccc2c(c1)nc(C(C)(C)C)n2CC1CCOCC1
label: NO

compound: CN(C)C(=O)C(CCN1CCC(O)(c2ccc(Cl)cc2)CC1)(c1ccccc1)c1ccccc1 [LOPERAMIDE]
label: YES

compound: C[C@H]1C[C@H]2CSC(N)=N[C@@]2(c2cc(C#N)ccc2F)CO1
label: NO

compound: Cn1nc(C(=O)NCCN2CCOCC2)cc1-c1cc2ccccc2[nH]1
label: NO

compound: O=C(O)C(=O)Nc1ccc(NC(=O)[C@H](CC2CCCC2)n2cnc(C(F)(F)F)c2)nc1
label: NO

compound: O=C(O)c1nc2cc(Cl)c(Cl)cc2nc1O
label: YES

compound: Cc1ccc(CC(C)(C)NC[C@@H](O)CO[C@H](C)c2ccccc2-c2ccc(C(=O)O)c(C)c2)cc1F
label: NO

compound: N#Cc1ccc(N2N=C(N3CCC(C(=O)N4CCC(O)CC4)CC3)C[C@H]2C2CCCC2)cc1Cl
label: NO

compound: Cc1nc([C@@H]2CCOC2)c2c(N3CCc4c(c(C5CC5)nn4C)C3)ncnn12
label: NO

compound: Cc1ccc(NC(=O)N2CCN(Cc3sc4ccccc4c3C)CC2)nc1
label: NO

compound: C[C@H](c1nc2cnc(N3CCC[C@@H](C(=O)N4CCCC4)C3)nc2[nH]1)n1cc(Cl)cn1
label: YES

compound: O=C(O)[C@@H]1CCCN(C(=O)n2cnc(-c3ccc(-c4cnc(N5CCOCC5)nc4)cc3)n2)[C@H]1c1ccccc1
label: NO

compound: COc1cc(/C=C2\CCCN([C@@H](C)c3ccc(F)cc3)C2=O)ccc1-n1cnc(C)c1
label: NO

compound: COCCCN1C[C@H](C)N(C(=O)N2Cc3c(NC(=O)c4ccccn4)n[nH]c3C2(C)C)C[C@H]1C
label: YES

compound: O=C(O)[C@@H]1CCN(C(=O)n2cnc(-c3ccc(-c4cnc(N5CCOCC5)nc4)cc3)n2)[C@@H](c2ccccc2)C1
label: YES

compound: COc1ccc(-c2cc3c(C(=O)O)n[nH]c3cc2Cl)cc1
label: NO
